- method: qHTS assay to identify small molecule agonists of H2AX - cell viability counter screen (AID 1224847);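 also: wild-type CHO-K1 cells; top concentration of the series differs between compounds; % is scaled to controls: 0 for no effect and ±100 for the full control effect; nearly all actives have a fitted effect of over 30% in size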
- test-context: CHO-K1 viability, CellTiter-Glo luminescence, 3 h; series mostly up to 154 µM
Inconclusive results are not listed. The source made the active and inactive calls. Calls follow the shape of the full dose curve.
measure-name: activity change, negative = cytotoxicity

# input Which activity change, negative = cytotoxicity value is on record for O=C(O)CN(CCCN(CC(=O)O)CC(=O)O)CC(=O)O ?
# output 0.112% [at 31.6 µM] (inactive)

# input Query C=C[Si](C)(C)Cl next
# output -1.05% [at 14 µM] (inactive)

# input Continue with C=CC(=O)OCCOC1C2CCC1C1CC=CC12 (stereo not given)
# output 1.49% [at 31.6 µM] (inactive)

# input Try this molecule too: CCCCCCCCCCCCS(=O)(=O)Cl
# output 2.47% [at 31.6 µM] (inactive)

# input Similarly, O=C(O)C[C@H](O)C[C@H](O)/C=C/c1c(C2CC2)nc2ccccc2c1-c1ccc(F)cc1 ?
# output -0.332% [at 31.6 µM] (inactive)

---

- method: qHTS assay to identify small molecule antagonists of the estrogen related receptor (ERR) signaling pathway (AID 1224819; also: nearly all actives have a fitted effect of over 50% in size)
- test-context: ERR reporter cell line, luciferase inhibition; series mostly up to 46.1 µM
Records with an inconclusive call do not appear. Calls of active or inactive are those of the source. The call rests on the fitted dose curve; in most records, active means well fitted inhibition curve with a large enough effect in the repeat runs; inconclusive means weak or mixed curves; inactive means no such curve, though single readings can be large or run the other way.
Hello, when you answer, please use one of the following outcomes: class 1 for active, class 0 for inactive

# input # fetch the recorded call for N#C/C(=C\c1ccc(O)c(O)c1)C(=O)NCCc1ccccc1 here
# output class 0

# input And then C=CC(N)CCC(=O)O (configuration not stated) , what is it?
# output class 0

# input Proceed to CN(C)C(N)=NCCC[C@H](N)C(=O)O
# output class 0

# input Next compound up: O=C1NC(=O)/C(=C/c2ccc3c(c2)OC(F)(F)O3)S1
# output class 0

# input Same for O[Si](CCCN1CCCCC1)(c1ccc(F)cc1)C1CCCCC1 (configuration not stated)
# output class 0

# input What about C[C@@H]1C(=O)NC2=Nc3cccc(Cl)c3CN21 ?
# output class 0

# input Please give the result for CC1(C)CCC2=C(O1)c1ccccc1C(=O)C2=O too.
# output class 1

# input Same for O=C(O)C1CCCNC1 (configuration not stated)
# output class 0

# input Entry CS(=O)(=O)c1cccc(CNc2nc(Nc3ccc4c(c3)CCC(=O)N4)ncc2C(F)(F)F)c1 please
# output class 0

# input Quick one: OC[C@H]1O[C@@H](n2cnc3c(NC4CCCCC4)ncnc32)[C@H](O)[C@@H]1O
# output class 0

# input For Clc1nccc2c1ccc1ccccc12 then?
# output class 0

# input Follow-up entry: Cn1c(=O)c2[nH]c(-c3ccccc3)nc2n(C)c1=O
# output class 0

---

- method: qHTS assay to identify small molecule antagonists of the androgen receptor (AR) signaling pathway using the MDA cell line in the presence of 0.5 nM R1881 - cell viability counter screen (AID 1259242); also: nearly all actives have a fitted effect of over 45% in size
- test-context: MDA-kb2 viability, CellTiter-Fluor protease fluorescence, 16 h; series mostly up to 92.4 µM
Results filed as inconclusive are left out. Calls of active or inactive are those of the source. The call rests on the fitted dose curve; in most records, active means well fitted cell-killing curve with a large enough effect in the repeat runs; inconclusive means weak or mixed curves, or effect the other way; inactive means flat fitted curve, though single readings scatter.
Respond using exactly one of the listed classes: true for active, false for inactive

# input Could you please tell me the result logged for CC(C)(C)c1cc(CCC(=O)OCCSCCOC(=O)CCc2cc(C(C)(C)C)c(O)c(C(C)(C)C)c2)cc(C(C)(C)C)c1O in this assay?
# output false

# input Also C=C(C)CCO ?
# output false

# input Do the same for c1ccc2cc3c4ccccc4c4ccccc4c3cc2c1 please
# output false

# input And the next one, [Cl][Eu]([Cl])[Cl] ?
# output false

# input Continue with Cc1ccc(C=O)cc1
# output false

# input // repeat for c1ccc(C[P+](c2ccccc2)(c2ccccc2)c2ccccc2)cc1 and report
# output true

# input And the next one, C=C1CC[C@H]2O[C@]2(C)CC[C@@H]2[C@@H]1CC2(C)C ?
# output false
